src = patent US20060247320A1

Molecular target: KSP motor domain (Homo sapiens)
Sequence (P52732 18-359 limits assumed): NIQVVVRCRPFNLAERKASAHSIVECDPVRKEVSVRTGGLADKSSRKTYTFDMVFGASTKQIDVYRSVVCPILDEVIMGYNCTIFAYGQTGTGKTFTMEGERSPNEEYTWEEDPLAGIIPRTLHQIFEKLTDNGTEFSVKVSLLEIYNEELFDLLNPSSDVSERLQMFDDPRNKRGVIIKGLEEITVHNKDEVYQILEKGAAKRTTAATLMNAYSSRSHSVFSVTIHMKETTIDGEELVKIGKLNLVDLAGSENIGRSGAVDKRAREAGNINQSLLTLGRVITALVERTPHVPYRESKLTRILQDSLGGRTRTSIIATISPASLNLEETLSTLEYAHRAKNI
Assay: biochemical
Conditions: KSP inhibitory activity, end-point assay; class symbols (Table 1); read-out: IC50
pIC50: −log10 of the molar value.
Recorded metric: pIC50

A selection of reference data follows.
[[record]]
compound = "CCC1Cc2nc3sc(C#N)cc3cc2CC1C(C)(C)C (centres unmarked) [Example 206]"
result = "5.00 to 6.00"

[[record]]
compound = "CC(C)(C)C1CCc2nc3sc(C(=O)Nc4ccc(O)cc4)cc3cc2C1 (centres unmarked) [Example 226A]"
result = "6.00 to 7.00"

[[record]]
compound = "CC(C)C1Cc2cc3c(N)c(C#N)sc3nc2CC1C (centres unmarked) [Example 207]"
result = "< 5.00"

[[record]]
compound = "CC(C)(C)C1CCc2nc3sc(C#N)c(Br)c3cc2C1 (centres unmarked) [Example 112]"
result = "< 5.00"

[[record]]
compound = "CCC(C)(C)C1C=Cc2nc3sc(C(N)=O)cc3cc2C1 (centres unmarked) [Example 114]"
result = "> 7.00"


Look up pIC50 for the entries below, preserving their order.
1. CC(C)(C)C1CCc2nc3sc(C(=O)Nc4ccccc4)cc3cc2C1 (centres unmarked) [Example 77]
2. CC(C)(C)[C@@H]1CCc2nc3sc(C(=O)N[C@H](CN)c4cccc(NC(=O)c5nccnc5N)c4)cc3cc2C1 [Example 261]
3. CC(C)(C)[C@@H]1CCc2nc3sc(C(=O)N[C@H](CN)c4cccc(NC(=O)c5ccc[nH]5)c4)cc3cc2C1 [Example 252]

Ans.
1. < 5.00
2. > 7.00
3. > 7.00

Look up pIC50 for the entries below, preserving their order.
1. CC(C)(C)[C@@H]1CCc2nc3sc(C(=O)N[C@H](CN)c4cccc(NCc5ccncc5)c4)cc3cc2C1 [Example 281]
2. CC(C)(C)C1CCc2nc3sc(C(=O)N[C@H](CN)c4cccc(-c5ccccc5)c4)cc3cc2C1 (some centres unmarked) [Example 211]
3. CC(C)(C)C1CCc2nc3sc(-c4ncc[nH]4)cc3cc2C1 (centres unmarked) [Example 181]
4. CC(C)(C)C1CCc2nc3sc(C(=O)Nc4cccc(N)c4)cc3cc2C1 (centres unmarked) [Example 226D]
5. Cc1cc(C(=O)Nc2cccc([C@@H](CNCCO)NC(=O)c3cc4cc5c(nc4s3)CC[C@@H](C(C)(C)C)C5)c2)no1 [Example 266]
6. CC(O)CNC(=O)c1cc2cc3c(nc2s1)CCC(C(C)(C)C)C3 (centres unmarked) [Example 103]
7. Cc1ccc([C@@H](CN)NC(=O)c2cc3cc4c(nc3s2)CCC(C(C)(C)C)C4)cc1 (some centres unmarked) [Example 221]
8. CC(C)(C)[C@@H]1CCc2nc3sc(C(=O)N[C@H](CN)c4cccc(NC(=O)c5ncco5)c4)cc3cc2C1 [Example 263]

Ans.
["> 7.00", "6.00 to 7.00", "6.00 to 7.00", "6.00 to 7.00", "> 7.00", "5.00 to 6.00", "> 7.00", "> 7.00"]

Consider CCC(C)(C)C1CCc2nc3sc(C#N)cc3c(Cl)c2C1 (centres unmarked) [Example 113] . Its measured pIC50 is 5.00 to 6.00
